Parameter: r1 4.5 w/v BSA (1.5 T). Scope: all listed entries.
Test: Relaxivity (r1, r2) measurement of Gd(III) complexes in water, BSA and human plasma
Format: physicochemical
Details: 4.5 w/v BSA, 1.5 T, 37° C.
Experimental: This is very important because the huge difference in the inner-sphere coordinated water exchange rate between the two isomers is a key factor for applications, for example, as MRI contrast agents. To show their potential value, the two diastereomers of [GdL2]^− ([GdL2A]^− and [GdL2B]^−) were separated and their relaxivities were measured. […]
Lab note: jot down the number only; don't add units.

compound: CC[C@H]1CN(CC(=O)[O-])[C@@H](CC)CN(CC(=O)[O-])[C@@H](CC)CN(CC(=O)[O-])[C@@H](CC)CN1CC(=O)[O-].[Gd+3] (single isomer, unassigned) [[GdL2A]^−]
property name: r1 4.5 w/v BSA (1.5 T)
reading: 3.9
--
compound: C[C@H]1CN(CC(=O)[O-])[C@@H](C)CN(CC(=O)[O-])[C@@H](C)CN(CC(=O)[O-])[C@@H](C)CN1CC(=O)[O-].[Gd+3] [[GdL1]^−]
property name: r1 4.5 w/v BSA (1.5 T)
reading: 4.1
--
compound: CC[C@H]1CN(CC(=O)[O-])[C@@H](CC)CN(CC(=O)[O-])[C@@H](CC)CN(CC(=O)[O-])[C@@H](CC)CN1CC(=O)[O-].[Gd+3] (single isomer, unassigned) [[GdL2B]^−]
property name: r1 4.5 w/v BSA (1.5 T)
reading: 3.6
--
compound: CC[C@H]1CN(CC(=O)[O-])[C@@H](CC)CN(CC(=O)[O-])[C@@H](CC)CN(CC(=O)[O-])[C@@H](CC)CN1CC(=O)[O-].[Gd+3] [[GdL2]^−]
property name: r1 4.5 w/v BSA (1.5 T)
reading: 3.6

Moving on to another compound below.
Please supply the value of reported r1 4.5 w/v BSA (1.5 T) for the item O=C([O-])CN1CCN(CC(=O)[O-])CCN(CC(=O)[O-])CCN(CC(=O)[O-])CC1.[Gd+3] [[GdDOTA]^−, reference compound] 4.1
